B1: library; numbered along this chain (parent)
chain: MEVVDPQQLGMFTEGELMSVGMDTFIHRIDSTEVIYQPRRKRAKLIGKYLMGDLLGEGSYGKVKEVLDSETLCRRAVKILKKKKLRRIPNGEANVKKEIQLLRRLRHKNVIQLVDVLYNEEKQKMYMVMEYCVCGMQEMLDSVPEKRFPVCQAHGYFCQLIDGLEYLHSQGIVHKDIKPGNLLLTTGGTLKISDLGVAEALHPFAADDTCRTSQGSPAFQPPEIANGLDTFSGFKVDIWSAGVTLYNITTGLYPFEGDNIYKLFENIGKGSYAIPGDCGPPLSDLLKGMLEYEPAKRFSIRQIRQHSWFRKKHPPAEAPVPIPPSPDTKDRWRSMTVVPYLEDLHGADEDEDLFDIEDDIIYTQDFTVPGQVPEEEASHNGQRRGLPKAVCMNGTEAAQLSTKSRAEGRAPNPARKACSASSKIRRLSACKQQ

# Variants of: B1
# Experiment: STK11 functional score (HeLa growth suppression), rescaled enrichment; synonymous median = 1, nonsense median = 0 (normalised score)
# Test settings: with HeLa; variant type: missense
Measurement label: STK11 functional score
Please respond with just the number, no unit label.

Illustrative cases are given below, each with its answer.
>>> print(df.to_string())
   variant_notation  recorded_value
0             Y362N            1.47
1             L353R            1.57
2             L167Y           0.387
3              V95A            1.28
4             E121R            1.31

Ask: Can you look up the measured STK11 functional score of `K122Q` for me?
Reply: 0.235

Ask: Also `C210M` , if possible.
Reply: 0.956

Ask: Also `G91C` , if possible.
Reply: 0.164

Ask: Also `I361E` , if possible.
Reply: 1.52

Ask: Also `V372Q` , if possible.
Reply: 1.49

Ask: Also `Q382K` , if possible.
Reply: 1.11

Ask: Also `T336Y` , if possible.
Reply: 1.17

Ask: Also `F204R` , if possible.
Reply: 0.931

Ask: Also `I79Q` , if possible.
Reply: 1.51

Ask: Also `G163C` , if possible.
Reply: 0.245

Ask: Also `A406S` , if possible.
Reply: 1.41

Ask: Also `V197A` , if possible.
Reply: 1.26

Ask: Also `A347V` , if possible.
Reply: 1.23

Ask: Also `V236A` , if possible.
Reply: 1.56

Ask: Also `D284G` , if possible.
Reply: 0.99

Ask: Also `R383S` , if possible.
Reply: 1.3

Ask: Also `K146V` , if possible.
Reply: 0.152

Ask: Also `A316S` , if possible.
Reply: 0.768

Ask: Also `R425M` , if possible.
Reply: 1.51

Each recorded value in this set is attributed to the supplement of paper PMC12338614.
